Endpoint: AC50. System: Melanocortin receptor 4 (Homo sapiens, UniProt P32245). Items follow. Further: assay procedure not described here.
Sequence (P32245 whole entry): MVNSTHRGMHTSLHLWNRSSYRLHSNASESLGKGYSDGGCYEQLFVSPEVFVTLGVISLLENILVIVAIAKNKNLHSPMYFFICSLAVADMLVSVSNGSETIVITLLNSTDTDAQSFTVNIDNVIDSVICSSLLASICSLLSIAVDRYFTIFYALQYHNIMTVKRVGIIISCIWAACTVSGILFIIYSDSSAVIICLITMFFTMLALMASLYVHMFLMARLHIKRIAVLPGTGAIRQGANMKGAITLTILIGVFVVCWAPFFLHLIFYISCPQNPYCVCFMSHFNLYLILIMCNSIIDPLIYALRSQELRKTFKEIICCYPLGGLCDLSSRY

CCCCNc1ccc(C(=O)OCCN(C)C)cc1 [TETRACAINE]
> 30 µM

For every item in the list below, what is its measured AC50?
1. COc1ccc2c(c1)[C@]13CCCC[C@@H]1[C@H](C2)N(C)CC3 [DEXTROMETHORPHAN]
2. NS(=O)(=O)c1cc(C2(O)NC(=O)c3ccccc32)ccc1Cl (configuration not stated) [CHLORTHALIDONE]
3. CNCCCC1c2ccccc2C=Cc2ccccc21 [PROTRIPTYLINE]
4. Clc1ccc2c(c1)C(c1ccccc1)=NCc1nncn1-2 [ESTAZOLAM]
5. C[C@H]1C[C@H]2[C@@H]3CCC4=CC(=O)C=C[C@]4(C)[C@@]3(Cl)[C@@H](O)C[C@]2(C)[C@@]1(O)C(=O)CO [BECLOMETHASONE]
6. NC(=O)c1ncn([C@@H]2O[C@H](CO)[C@@H](O)[C@H]2O)n1 [RIBAVIRIN]

Reply:
["> 30 µM", "> 10 µM", "> 10 µM", "> 30 µM", "> 30 µM", "> 10 µM"]

* * *

ASSAY TARGET: Thromboxane A2 receptor (Homo sapiens, UniProt P21731); further: assay procedure not described here
Sequence (P21731 whole entry): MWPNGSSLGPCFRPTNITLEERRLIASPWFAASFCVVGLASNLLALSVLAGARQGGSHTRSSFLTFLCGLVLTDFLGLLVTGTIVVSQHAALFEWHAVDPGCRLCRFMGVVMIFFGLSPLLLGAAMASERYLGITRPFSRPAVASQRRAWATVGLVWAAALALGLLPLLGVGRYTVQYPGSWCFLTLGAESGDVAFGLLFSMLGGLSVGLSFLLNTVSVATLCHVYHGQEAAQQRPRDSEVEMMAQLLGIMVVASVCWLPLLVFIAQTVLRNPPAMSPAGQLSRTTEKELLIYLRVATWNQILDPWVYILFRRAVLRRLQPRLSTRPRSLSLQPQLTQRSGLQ
Format: functional, cell-based
Please respond with reported AC50 for every item in the list.

Reference set (4 entries):
N[C@@H](CSSC[C@H](N)C(=O)O)C(=O)O
> 30 µM
COc1cc([C@@H]2c3cc4c(cc3[C@@H](O[C@@H]3O[C@@H]5CO[C@@H](c6cccs6)O[C@H]5[C@H](O)[C@H]3O)[C@H]3COC(=O)[C@H]23)OCO4)cc(OC)c1O [TENIPOSIDE]
> 30 µM
CCN(CC)CCOC(=O)C(Cc1cccc2ccccc12)CC1CCCO1 (stereo unspecified)
> 30 µM
CCCCCCCCCCCCCCCC(=O)OC/C=C(C)/C=C/C=C(C)/C=C/C1=C(C)CCCC1(C)C [VITAMIN A PALMITATE]
> 30 µM

For every item in the list below, what is its measured AC50?
1. CCCC(=O)O[C@H]1[C@H](C)O[C@@H](O[C@H]2[C@H](N(C)C)[C@@H](O)[C@H](O[C@H]3[C@@H](CC=O)C[C@@H](C)[C@@H](O)/C=C/C=C/C[C@@H](C)OC(=O)C[C@@H](O)[C@@H]3OC)O[C@@H]2C)C[C@@]1(C)OC(=O)CC
2. CCCCCCCCCCCCCCCCCC(=O)NCCCC[C@H](NC(=O)CC[C@@H](NC(=O)[C@H](C)NC(=O)[C@@H](C)O[C@H]1[C@H](O)[C@@H](CO)OC(O)[C@@H]1NC(C)=O)C(N)=O)C(=O)O (stereo partly specified) [ROMURTIDE]
3. Oc1c(I)cc(Cl)c2cccnc12
4. C[C@]1(COc2ccc(N3CCC(Oc4ccc(OC(F)(F)F)cc4)CC3)cc2)Cn2cc([N+](=O)[O-])nc2O1

Reply:
> 30 µM
> 3 µM
> 10 µM
> 30 µM

* * *

Please respond with reported AC50 for every item in the list.
ASSAY TARGET: Histamine H1 receptor (Homo sapiens); further: assay procedure not described here
Sequence (P35367 whole entry): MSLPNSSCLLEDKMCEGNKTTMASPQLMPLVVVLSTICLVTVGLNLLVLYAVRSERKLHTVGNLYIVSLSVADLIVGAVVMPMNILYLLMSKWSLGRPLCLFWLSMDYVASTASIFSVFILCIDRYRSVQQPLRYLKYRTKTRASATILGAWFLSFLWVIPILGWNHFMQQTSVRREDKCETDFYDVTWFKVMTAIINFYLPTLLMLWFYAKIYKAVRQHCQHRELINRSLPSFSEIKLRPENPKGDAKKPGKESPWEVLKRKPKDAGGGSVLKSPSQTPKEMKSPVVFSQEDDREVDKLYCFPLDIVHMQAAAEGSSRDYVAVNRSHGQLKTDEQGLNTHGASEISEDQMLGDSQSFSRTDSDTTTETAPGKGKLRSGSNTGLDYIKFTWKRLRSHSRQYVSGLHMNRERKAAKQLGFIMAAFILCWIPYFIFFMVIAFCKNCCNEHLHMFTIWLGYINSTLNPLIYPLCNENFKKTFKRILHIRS

COc1cc2nccc(Oc3ccc(NC(=O)Nc4cc(C)on4)c(Cl)c3)c2cc1OC
> 30 µM

For every item in the list below, what is its measured AC50?
1. Cc1ccc(NC(=O)C2(c3ccc4c(c3)OC(F)(F)O4)CC2)nc1-c1cccc(C(=O)O)c1
2. C[C@]12CC[C@H](O)CC1=CC[C@@H]1[C@@H]2CC[C@]2(C)C(c3cccnc3)=CC[C@@H]12
3. CC1(C)C(/C=C/C=C/C=C/C=C2\N(CCCCS(=O)(=O)O)c3ccc4ccccc4c3C2(C)C)=[N+](CCCCS(=O)(=O)[O-])c2ccc3ccccc3c21 [INDOCYANINE GREEN ACID FORM]
4. COc1cccc(N(C)C(=S)Oc2ccc3c(c2)CCCC3)n1 [LIRANAFTATE]
5. CNCC[C@H](Oc1cccc2ccccc12)c1cccs1
6. [H]/N=C(\N/C(=N/[H])NCCCCCCNC(=N)NC(=N)Nc1ccc(Cl)cc1)Nc1ccc(Cl)cc1

Reply:
1: > 30 µM; 2: > 10 µM; 3: 8.3 µM; 4: > 30 µM; 5: 8.8 µM; 6: > 10 µM

The origin of these recorded values is ChEMBL document CHEMBL5291721.
